- Target or system: Human immunodeficiency virus type 1 reverse transcriptase (Human immunodeficiency virus 1)
- Assay notes: In vitro inhibitory activity against human immunodeficiency virus type 1 (HIV-1) reverse transcriptase (RT) at a concentration of 10 ug/mL.
So I've got a bunch of molecules here, and I need their inhibition values.

Reported inhibition for CCN1c2ccc([N+](=O)[O-])cc2N(C)C(=O)c2cccnc21 : what is it?
56%

Reported inhibition for CCN(CC)C(=O)c1ccc2c(c1)N(C)C(=O)c1cccnc1N2CC : what is it?
11%

Reported inhibition for Cc1cc2c(cc1C)N(CCN(C)C)c1ncccc1C(=O)N2C : what is it?
0%

Reported inhibition for CCN1c2ncccc2C(=O)N(C)c2c(C)ccnc21 : what is it?
98%

Reported inhibition for CCN1c2ncccc2NC(=O)c2cccnc21 : what is it?
99%

Reported inhibition for C=CCN1c2ncccc2C(=O)N(C)c2cccnc21 : what is it?
99%

* * *

- Target or system: Human immunodeficiency virus type 1 reverse transcriptase (Human immunodeficiency virus 1) (UniProt Q72547)
- Assay notes: In vitro inhibitory activity against human immunodeficiency virus type 1 (HIV-1) reverse transcriptase (RT) at a concentration of 10 ug/mL.
Quantity kind: inhibition (%)
Write the value in % as a bare number.

Reported inhibition for CCN1c2cc(C(F)(F)F)ccc2N(C)C(=O)c2cccnc21 : what is it?
97

Reported inhibition for CCN1c2cccc(C)c2NC(=O)c2cccnc21 : what is it?
100

Reported inhibition for O=C1c2cccnc2Nc2ccccc2N1CCO : what is it?
46

Reported inhibition for CCN1c2ccccc2NC(=O)c2cccnc21 : what is it?
99

Reported inhibition for CN1C(=O)c2cccnc2N(Cc2ccccc2)c2ccccc21 : what is it?
93

Reported inhibition for CCN1c2ccccc2N(C)C(=O)c2ccc(F)nc21 : what is it?
84

Reported inhibition for CC(=O)N1c2cc(C)c(C)cc2N(C)C(=O)c2cccnc21 : what is it?
96

Reported inhibition for C=CCN1C(=O)c2cccnc2N(C(C)=O)c2ccccc21 : what is it?
83

Reported inhibition for CCN1c2ccc(CNC(=O)C(C)(C)C)cc2N(C)C(=O)c2cccnc21 : what is it?
15

Reported inhibition for CSCN1c2ncccc2C(=O)N(C)c2cccnc21 : what is it?
99

Reported inhibition for CCN1c2ccc([N+](=O)[O-])cc2N(C)C(=O)c2cc(Br)cnc21 : what is it?
64

Reported inhibition for CCN1c2cc(C(F)(F)F)cc(Br)c2N(C)C(=O)c2cccnc21 : what is it?
71

Reported inhibition for CCN1c2ccc(C)cc2N(C)C(=O)c2cccnc21 : what is it?
100

Reported inhibition for CCN1c2ncccc2C(=O)N(C(C)=O)c2cccnc21 : what is it?
99

Reported inhibition for CCN1c2ncccc2C(=O)Nc2c(Cl)ccnc21 : what is it?
100

Reported inhibition for CN1C(=O)c2cccnc2N(CC(=O)OC(C)(C)C)c2ccccc21 : what is it?
87

Reported inhibition for C=CCN1C(=O)c2cccnc2N(C(=O)CC)c2ccccc21 : what is it?
72

Reported inhibition for CCN1c2cc(C(F)(F)F)cc(Cl)c2N(C)C(=O)c2cccnc21 : what is it?
96

Reported inhibition for CCN1c2ncccc2C(=O)Nc2c(O)ccnc21 : what is it?
94

Reported inhibition for CN1C(=O)c2cccnc2N(CCF)c2ccccc21 : what is it?
97

Reported inhibition for CCN1c2ncccc2C(=O)N(C)c2cc(C)cnc21 : what is it?
100

Reported inhibition for CCCN1c2ncccc2C(=O)N(C)c2cccnc21 : what is it?
100

Reported inhibition for CCOC(=O)N1c2ccccc2N(C)C(=O)c2cccnc21 : what is it?
13

Reported inhibition for CCN1c2ncc(Cl)cc2C(=O)N(C)c2cccnc21 : what is it?
87

Reported inhibition for C#CCN1c2ncccc2C(=O)N(C)c2cccnc21 : what is it?
94
